System: OVCAR-5 ovarian
MEASUREMENT_DESCRIPTION: NCI-60 one-dose screen, 48 h
RUN_CONDITIONS: 10 µM unless noted
The panel holds about 83,000 compounds, 20% with a hit somewhere; the sample as a whole holds those more often. Activity calls are given as the source filed them. Rule for the calls: active = growth percent below 10; inactive = the rest.
Reply using exactly one outcome from 1 for active, 0 for inactive

- C[C@H](NC(=O)c1ccc2c(-c3ccc(C(F)(F)F)cc3)cccc2c1)c1ccccn1: 0

Can you look up the reported call for `O=C(N/N=C/c1ccsc1)c1[nH]c2ccc(Br)cc2c1-c1ccccc1` for me?
1

Can you look up the reported call for Fc1ccc(F)c(CNc2nc(SCCN3CCOCC3)nc3c2cnn3CC(Cl)c2ccc(Br)cc2)c1 (stereo not given) for me?
0

Can you look up the reported call for Cc1nc(Nc2ccccn2)sc1C1=NNC(c2ccccc2F)C1 (stereo not given) for me?
0

Can you look up the reported call for `COc1ccc(N=Nc2c(N)nn3c(-c4ccc(F)cc4)ccnc23)cc1` for me?
0
